# system-tested: human Fc (human)
# measurement-description: ELISA, negative control
measured-metric: optical density (OD)
Give the value in OD but do not write OD after it.

Q: Answer with the recorded optical density for the binder listed here: 371_B03 (antibody, V domains shown) VH: EVQLLESGGGLVQPGGSLRLSCAASGFTFSSYGMHWVRQAPGKGLEWVASINYNGGYTSYADSVKGRFTISRDNSKNTLYLQMNSLRAEDTAVYYCARGANWHDTHLDYWGQGTLVTVSS VL: DIQMTQSPSSLSASVGDRVTITCRASQSILSYVNWYQQKPGKAPKLLIYATTSRASGVPSRFSGSGSGTDFTLTISSLQPEDFATYYCQQSYDNPLTFGGGTKVEIK
Result: 0.367

Q: Answer with the recorded optical density for the binder listed here: 365_E12 (antibody, V domains shown) VH: EVQLLESGGGLVQPGGSLRLSCAASGFTFSDYGMNWVRQAPGKGLEWVSNINYNGGYTGYADSVKGRFTISRDNSKNTLYLQMNSLRAEDTAVYYCARGANWHDTALDYWGQGTLVTVSS VL: DIQMTQSPSSLSASVGDRVTITCRASQSILTYLNWYQQKPGKAPKLLIYAATSRASGVPSRFSGSGSGTDFTLTISSLQPEDFATYYCQQSYETPLTFGGGTKVEIK
Result: 0.338

Q: Answer with the recorded optical density for the binder listed here: 370_A02 (antibody, V domains shown) VH: EVQLLESGGGLVQPGGSLRLSCAASGFTFDSYGMNWVRQAPGKGLEWVAGINYNGGYTGYADSVKGRFTISRDNSKNTLYLQMNSLRAEDTAVYYCARGANWHDTALDYWGQGTLVTVSS VL: DIQMTQSPSSLSASVGDRVTITCRASQSIVTYLNWYQQKPGKAPKLVIYAATSRASGVPSRFSGSGSGTDFTLTISSLQPEDFATYYCQQSYDSPLTFGGGTKVEIK
Result: 0.425
